# system.under.test: SK3 channel (Rattus norvegicus, UniProt P70605)
# Construct: expressed in transfected cells
# method.notes: Conventional manual patch clamp on HEK-rSK3 cells, SK3 channel activity
# Assay type: cell-based
# condition.label: 10 μM
endpoint: % SK3 inhibition

compound: OC1CCC(Nc2ncnc3cccnc23)c2ccccc21 (stereo not shown) [Compound 142-E1]
readout.value: 10 μM: 57.16 ± 5.51 (N = 4) %
--
compound: OC1CCC(Nc2ncnc3cccnc23)c2ccccc21 (stereo not shown) [Compound 142-E3]
readout.value: 10 μM: 58.9 ± 6.08 (N = 4) %
--
compound: OC1CCC(Nc2ncnc3cccnc23)c2ccccc21 (stereo not shown) [Compound 142-E2]
readout.value: 10 μM: 75.11 ± 2.87 (N = 4) %
--
compound: c1ccc2c(c1)CCCC2Nc1ncnc2cccnc12 (stereo not shown) [Compound 7]
readout.value: 10 μM: 83.4 ± 3.2 (N = 8) %

---

# system.under.test: SK3 channel (Rattus norvegicus, UniProt P70605)
# Construct: expressed in transfected cells
# method.notes: Conventional manual patch clamp on HEK-rSK3 cells, SK3 channel activity
# Type: cell-based
# condition.label: 100 nM; 0.1 µM
Each entry below lists one item and its recorded % SK3 inhibition value.
endpoint: % SK3 inhibition

molecule: OC1CCC(Nc2ncnc3cccnc23)c2ccccc21 (stereo not shown) [Compound 142-E2]
system.under.test: SK3 channel (Rattus norvegicus, UniProt P70605)
endpoint: % SK3 inhibition
readout.value: 100 nM: 59.42 ± 3.43 (N = 4) %
--
molecule: OC1CCC(Nc2ncnc3cccnc23)c2ccccc21 (stereo not shown) [Compound 142-E4]
system.under.test: SK3 channel (Rattus norvegicus, UniProt P70605)
endpoint: % SK3 inhibition
readout.value: 100 nM: 37.97 ± 3.99 (N = 3) %
--
molecule: OC1CCC(Nc2ncnc3cccnc23)c2ccccc21 (stereo not shown) [Compound 142-E3]
system.under.test: SK3 channel (Rattus norvegicus, UniProt P70605)
endpoint: % SK3 inhibition
readout.value: 100 nM: 49.71 ± 4.48 (N = 4) %
--
molecule: OC1CCC(Nc2ncnc3cccnc23)c2ccccc21 (stereo not shown) [Compound 142-E1]
system.under.test: SK3 channel (Rattus norvegicus, UniProt P70605)
endpoint: % SK3 inhibition
readout.value: 100 nM: 44.55 ± 5.67 (N = 5) %

---

# system.under.test: SK3 channel (Rattus norvegicus, UniProt P70605)
# Construct: expressed in transfected cells
# method.notes: Conventional manual patch clamp on HEK-rSK3 cells, SK3 channel activity
# Type: cell-based
# condition.label: 10 μM
Rule: inhibition at 10 µM of 60% or more gives y; anything lower gives n.

compound: c1ccc2c(c1)OCCC2Nc1ncnc2cccnc12 (centres unmarked)
label.value: n
--
compound: c1ccc2c(c1)CCCC2Nc1ncnc2ncccc12 (centres unmarked)
label.value: n
--
compound: Clc1ccc(CNc2ncnc3cccnc23)cc1Cl
label.value: n
--
compound: c1ccc2c(c1)CCCN2Nc1ncnc2cccnc12
label.value: y
--
compound: Cl.c1ccc2c(c1)CCCC2Nc1ncnc2cccnc12 (centres unmarked)
label.value: y

---

# system.under.test: SK3 channel (Rattus norvegicus, UniProt P70605)
# Construct: expressed in transfected cells
# method.notes: Conventional manual patch clamp on HEK-rSK3 cells, SK3 channel activity
# Format: cell-based
# condition.label: 10 μM
Rule: inhibition at 10 µM of 50% or more gives t; anything lower gives f.

molecule: c1ccc2c3c(ccc2c1)CCCC3Nc1ncnc2cccnc12 (stereo not drawn) [Compound 29]
label.value: f
//
molecule: Fc1cnc2c(N[C@H]3CCCc4ccccc43)ncnc2c1 [Compound 158]
label.value: t
//
molecule: Fc1ccc2c(c1)CCCC2Nc1ncnc2cccnc12 (stereo not drawn) [Compound 157]
label.value: t
//
molecule: Clc1ccc(CNc2ncc3ncccc3n2)cc1Cl [Compound 4]
label.value: f
//
molecule: OC1CCc2ccccc2C1Nc1ncnc2cccnc12 (stereo not drawn) [Compound 107]
label.value: t
//
molecule: COCOc1ccc2c(c1)CCCC2N (stereo not drawn) [Compound 103]
label.value: t
//
molecule: Clc1nc(NC2CCCc3ccccc32)c2ncccc2n1 (stereo not drawn) [Compound 6]
label.value: f
//
molecule: c1cnc2c(NC3CCCCC3)ncnc2c1 [Compound 23]
label.value: f
//
molecule: Cc1nc(NC2CCCc3ccccc32)c2ncccc2n1 (stereo not drawn) [Compound 30]
label.value: t
//
molecule: c1ccc2c(c1)CCCC2Nc1ncc2ncccc2n1 (stereo not drawn) [Compound 5]
label.value: f
//
molecule: CC1(C)CCC(Nc2ncnc3cccnc23)c2ccccc21 (stereo not drawn) [Compound 93]
label.value: t
//
molecule: Nc1nc(NC2CCCc3ccccc32)c2ncccc2n1 (stereo not drawn) [Compound 33]
label.value: t
//
molecule: CCCCCCc1cnc2c(NC3CCCc4ccccc43)ncnc2c1 (stereo not drawn) [Compound 40]
label.value: t
//
molecule: c1ccc2c(c1)CCC[C@@H]2Nc1ncnc2cccnc12 [Compound 20]
label.value: t
//
molecule: Clc1cnc2c(NC3CCCc4ccccc43)ncnc2c1 (stereo not drawn) [Compound 38]
label.value: t
//
molecule: c1ccc2c(c1)CCC[C@H]2Nc1ncnc2cccnc12 [Compound 18]
label.value: t
//
molecule: Clc1ccc2ncnc(N[C@H]3CCCc4ccccc43)c2n1 [Compound 133]
label.value: t
//
molecule: O=C1CCC(Nc2ncnc3cccnc23)c2ccccc21 (stereo not drawn) [Compound 152]
label.value: t

---

# system.under.test: SK3 channel (Rattus norvegicus, UniProt P70605)
# Construct: expressed in transfected cells
# method.notes: Conventional manual patch clamp on HEK-rSK3 cells, SK3 channel activity
# Type: cell-based
# condition.label: 100 nM
endpoint: inhibition at 0.1 µM (%)

compound: Clc1ccc2ncnc(N[C@H]3CCCc4ccccc43)c2n1 [Compound 133]
system.under.test: SK3 channel (Rattus norvegicus, UniProt P70605)
readout.value: 56.3
--
compound: O=C1CCC(Nc2ncnc3cccnc23)c2ccccc21 (stereo not shown) [Compound 152]
system.under.test: SK3 channel (Rattus norvegicus, UniProt P70605)
readout.value: 41.5
--
compound: Fc1ccc2c(c1)CCCC2Nc1ncnc2cccnc12 (stereo not shown) [Compound 157]
system.under.test: SK3 channel (Rattus norvegicus, UniProt P70605)
readout.value: 51.1
--
compound: Clc1cnc2c(NC3CCCc4ccccc43)ncnc2c1 (stereo not shown) [Compound 38]
system.under.test: SK3 channel (Rattus norvegicus, UniProt P70605)
readout.value: 51.9
--
compound: COCOc1ccc2c(c1)CCCC2N (stereo not shown) [Compound 103]
system.under.test: SK3 channel (Rattus norvegicus, UniProt P70605)
readout.value: 57.9
--
compound: Nc1nc(NC2CCCc3ccccc32)c2ncccc2n1 (stereo not shown) [Compound 33]
system.under.test: SK3 channel (Rattus norvegicus, UniProt P70605)
readout.value: 53.2
--
compound: CC1(C)CCC(Nc2ncnc3cccnc23)c2ccccc21 (stereo not shown) [Compound 93]
system.under.test: SK3 channel (Rattus norvegicus, UniProt P70605)
readout.value: 53.5
--
compound: c1ccc2c(c1)CCCN2Nc1ncnc2cccnc12 [Compound 53]
system.under.test: SK3 channel (Rattus norvegicus, UniProt P70605)
readout.value: 41.9
--
compound: c1ccc2c(c1)OCCC2Nc1ncnc2cccnc12 (stereo not shown) [Compound 62]
system.under.test: SK3 channel (Rattus norvegicus, UniProt P70605)
readout.value: 46.8
--
compound: c1ccc2c(c1)CCC[C@H]2Nc1ncnc2cccnc12 [Compound 18]
system.under.test: SK3 channel (Rattus norvegicus, UniProt P70605)
readout.value: 96
--
compound: Fc1nc(N[C@H]2CCCc3ccccc32)c2ncccc2n1 [Compound 49]
system.under.test: SK3 channel (Rattus norvegicus, UniProt P70605)
readout.value: 37.1
--
compound: Cl.c1ccc2c(c1)CCCC2Nc1ncnc2cccnc12 (stereo not shown) [Compound 75]
system.under.test: SK3 channel (Rattus norvegicus, UniProt P70605)
readout.value: 85.4
--
compound: CCCCCCc1cnc2c(NC3CCCc4ccccc43)ncnc2c1 (stereo not shown) [Compound 40]
system.under.test: SK3 channel (Rattus norvegicus, UniProt P70605)
readout.value: 11.9
--
compound: OC1CCc2ccccc2C1Nc1ncnc2cccnc12 (stereo not shown) [Compound 107]
system.under.test: SK3 channel (Rattus norvegicus, UniProt P70605)
readout.value: 46.8
--
compound: Cc1cc(C)n(-c2nc(NC3CCCc4ccccc43)c3ncccc3n2)n1 (stereo not shown) [Compound 67]
system.under.test: SK3 channel (Rattus norvegicus, UniProt P70605)
readout.value: 35.3
--
compound: Fc1cnc2c(N[C@H]3CCCc4ccccc43)ncnc2c1 [Compound 158]
system.under.test: SK3 channel (Rattus norvegicus, UniProt P70605)
readout.value: 64.1

---

Each entry below lists one item and its recorded inhibition at 0.05 µM value.
# system.under.test: SK3 channel (Rattus norvegicus, UniProt P70605)
# Construct: expressed in transfected cells
# method.notes: Conventional manual patch clamp on HEK-rSK3 cells, SK3 channel activity
# Type: cell-based
# condition.label: 50 nM
# Source text: Cell Lines Used to Screen the Molecules on the Activity of SKCa Channels (Small Conductance Calcium-Activated Potassium Channel; SK1, SK2 and SK3) and IKCa Channels (Intermediate Conductance Calcium-Activated Potassium Channel, SK4) Use was made of the HEK 293 T line, a foetal kidney line which was immortalised with the T antigen of the […] simian virus. This cell line is widely used on account of the ease with which these cells can be transfected with plasmids or other transfection vectors. […]

compound: CCCCCCOc1cnc2c(NC3CCCc4ccccc43)ncnc2c1 (stereo not shown)
system.under.test: SK3 channel (Rattus norvegicus, UniProt P70605)
inhibition at 0.05 µM [%]: 18.4

compound: c1ccc2c(c1)CCC2Nc1ncnc2cccnc12 (stereo not shown)
system.under.test: SK3 channel (Rattus norvegicus, UniProt P70605)
inhibition at 0.05 µM [%]: 22.9

compound: O=C1CCC(Nc2ncnc3cccnc23)c2ccccc21 (stereo not shown)
system.under.test: SK3 channel (Rattus norvegicus, UniProt P70605)
inhibition at 0.05 µM [%]: 24.4

compound: COCOc1ccc2c(c1)CCCC2N (stereo not shown)
system.under.test: SK3 channel (Rattus norvegicus, UniProt P70605)
inhibition at 0.05 µM [%]: 30.7

compound: Oc1nc(NC2CCCc3ccccc32)c2ncccc2n1 (stereo not shown)
system.under.test: SK3 channel (Rattus norvegicus, UniProt P70605)
inhibition at 0.05 µM [%]: 32.9

compound: N#Cc1nc(NC2CCCc3ccccc32)c2ncccc2n1 (stereo not shown)
system.under.test: SK3 channel (Rattus norvegicus, UniProt P70605)
inhibition at 0.05 µM [%]: 23.6

compound: OC1CCc2ccccc2C1Nc1ncnc2cccnc12 (stereo not shown)
system.under.test: SK3 channel (Rattus norvegicus, UniProt P70605)
inhibition at 0.05 µM [%]: 29.7

compound: CC1(C)CCC(Nc2ncnc3cccnc23)c2ccccc21 (stereo not shown)
system.under.test: SK3 channel (Rattus norvegicus, UniProt P70605)
inhibition at 0.05 µM [%]: 45.9

compound: c1ccc2c(c1)OCCC2Nc1ncnc2cccnc12 (stereo not shown)
system.under.test: SK3 channel (Rattus norvegicus, UniProt P70605)
inhibition at 0.05 µM [%]: 32.1

compound: Nc1nc(NC2CCCc3ccccc32)c2ncccc2n1 (stereo not shown)
system.under.test: SK3 channel (Rattus norvegicus, UniProt P70605)
inhibition at 0.05 µM [%]: 30.5
